Origin of values: paper PMC10599993

- SYSTEM_TESTED: DDR1 (Homo sapiens)
- Sequence (Q08345 whole entry): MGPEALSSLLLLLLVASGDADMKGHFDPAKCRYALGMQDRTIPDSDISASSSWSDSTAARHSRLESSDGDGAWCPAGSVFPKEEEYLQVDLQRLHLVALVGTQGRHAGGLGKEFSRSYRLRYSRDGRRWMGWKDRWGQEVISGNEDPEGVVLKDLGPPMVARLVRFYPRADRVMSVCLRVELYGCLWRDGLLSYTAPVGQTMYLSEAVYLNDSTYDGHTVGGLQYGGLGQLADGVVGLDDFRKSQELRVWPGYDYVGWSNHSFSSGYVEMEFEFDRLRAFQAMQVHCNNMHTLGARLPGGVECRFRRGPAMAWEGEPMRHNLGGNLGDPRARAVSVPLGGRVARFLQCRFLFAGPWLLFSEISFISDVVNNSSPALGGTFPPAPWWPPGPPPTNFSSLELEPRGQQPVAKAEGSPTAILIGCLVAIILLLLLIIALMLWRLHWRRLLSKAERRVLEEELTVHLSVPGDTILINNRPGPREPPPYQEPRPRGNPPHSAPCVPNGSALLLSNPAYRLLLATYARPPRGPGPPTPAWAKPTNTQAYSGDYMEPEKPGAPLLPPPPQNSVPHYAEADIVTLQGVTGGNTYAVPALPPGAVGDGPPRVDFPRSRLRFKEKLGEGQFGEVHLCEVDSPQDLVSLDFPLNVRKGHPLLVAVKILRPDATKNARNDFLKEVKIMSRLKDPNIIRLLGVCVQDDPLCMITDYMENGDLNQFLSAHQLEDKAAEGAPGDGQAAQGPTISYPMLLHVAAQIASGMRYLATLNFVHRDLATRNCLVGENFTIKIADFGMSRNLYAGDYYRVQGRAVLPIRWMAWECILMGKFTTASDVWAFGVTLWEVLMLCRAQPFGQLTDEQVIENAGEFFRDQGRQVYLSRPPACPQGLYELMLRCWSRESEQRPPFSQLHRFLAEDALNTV
MEASURED_METRIC: IC50

- CC(C)CCN[C@@H]1CCc2cc(O)c(N3CC(=O)NS3(=O)=O)c(F)c2C1: > 10 µM

====

- SYSTEM_TESTED: BRAF (Homo sapiens)
- Sequence (P15056 whole entry): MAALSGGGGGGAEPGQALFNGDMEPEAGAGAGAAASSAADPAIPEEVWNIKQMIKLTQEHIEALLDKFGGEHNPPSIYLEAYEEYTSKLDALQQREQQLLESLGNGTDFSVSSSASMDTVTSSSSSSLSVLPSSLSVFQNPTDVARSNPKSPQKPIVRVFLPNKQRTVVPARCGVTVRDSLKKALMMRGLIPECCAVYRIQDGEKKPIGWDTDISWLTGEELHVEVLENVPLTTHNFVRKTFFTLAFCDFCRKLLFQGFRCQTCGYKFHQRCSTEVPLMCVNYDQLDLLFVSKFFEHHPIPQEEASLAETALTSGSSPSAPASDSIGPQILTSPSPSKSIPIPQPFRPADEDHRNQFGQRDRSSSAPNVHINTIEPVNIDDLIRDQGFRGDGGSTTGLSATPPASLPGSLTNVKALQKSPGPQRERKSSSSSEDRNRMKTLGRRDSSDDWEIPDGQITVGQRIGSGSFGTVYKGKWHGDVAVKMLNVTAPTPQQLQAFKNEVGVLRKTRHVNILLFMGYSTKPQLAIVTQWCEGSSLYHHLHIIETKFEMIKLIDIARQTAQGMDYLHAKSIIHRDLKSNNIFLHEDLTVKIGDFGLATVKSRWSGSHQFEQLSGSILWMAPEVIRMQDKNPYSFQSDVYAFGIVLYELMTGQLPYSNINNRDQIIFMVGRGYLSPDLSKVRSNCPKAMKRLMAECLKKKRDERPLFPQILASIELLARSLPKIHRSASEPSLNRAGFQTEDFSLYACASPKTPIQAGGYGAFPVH
pIC50: −log10 of the molar value.
MEASURED_METRIC: pIC50

- CC(C)CCN[C@@H]1CCc2cc(O)c(N3CC(=O)NS3(=O)=O)c(F)c2C1 [AC484, ABBV-CLS-484]: < 5.00

====

- SYSTEM_TESTED: IKKE (Homo sapiens, UniProt Q14164)
- Sequence (Q14164 1-716): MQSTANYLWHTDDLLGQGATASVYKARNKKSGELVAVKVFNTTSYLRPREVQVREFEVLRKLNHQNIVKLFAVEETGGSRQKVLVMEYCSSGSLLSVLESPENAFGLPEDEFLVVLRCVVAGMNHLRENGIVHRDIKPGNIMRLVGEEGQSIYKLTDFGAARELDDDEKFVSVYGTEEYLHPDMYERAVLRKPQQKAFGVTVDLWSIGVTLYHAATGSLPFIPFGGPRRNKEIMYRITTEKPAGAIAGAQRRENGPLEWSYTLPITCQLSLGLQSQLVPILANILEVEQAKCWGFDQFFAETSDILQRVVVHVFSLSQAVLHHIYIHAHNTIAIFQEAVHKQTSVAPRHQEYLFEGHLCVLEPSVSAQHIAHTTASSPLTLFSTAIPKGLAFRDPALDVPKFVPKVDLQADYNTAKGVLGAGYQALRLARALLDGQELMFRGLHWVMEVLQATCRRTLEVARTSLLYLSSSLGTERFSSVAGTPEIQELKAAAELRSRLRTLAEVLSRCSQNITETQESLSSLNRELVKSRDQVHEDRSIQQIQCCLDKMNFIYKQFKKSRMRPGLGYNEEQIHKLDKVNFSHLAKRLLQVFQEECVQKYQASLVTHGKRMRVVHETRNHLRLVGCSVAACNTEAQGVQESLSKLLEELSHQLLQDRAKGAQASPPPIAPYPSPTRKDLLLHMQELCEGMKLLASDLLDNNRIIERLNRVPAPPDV
pIC50: −log10 of the molar value.
MEASURED_METRIC: pIC50

- CC(C)CCN[C@@H]1CCc2cc(O)c(N3CC(=O)NS3(=O)=O)c(F)c2C1: < 5.00
